Test system: Influenza A virus
Experiment: microbe, parasite or virus in culture
Settings: A/WSN/1933(H1N1), MDCK
assay-metric: pIC50
Worth noting: pIC50 values are minus log10 of concentrations stated in mol/L.

Q: Return reported pIC50; argument: `CCOC(=O)C1=C[C@@H](OC(CC)CC)[C@H](NC(C)=O)[C@@H](N)C1`
Result: 6.24

Q: Then what about the compound CCC(CC)[C@H](NC(C)=O)[C@@H]1[C@H](O)[C@@H](C(=O)O)C[C@H]1NC(=N)N [PERAMIVIR ANHYDROUS] ?
Result: 5.76

* * *

Target: Sialidase (Clostridium perfringens, UniProt P10481)
Sequence (P10481 whole entry): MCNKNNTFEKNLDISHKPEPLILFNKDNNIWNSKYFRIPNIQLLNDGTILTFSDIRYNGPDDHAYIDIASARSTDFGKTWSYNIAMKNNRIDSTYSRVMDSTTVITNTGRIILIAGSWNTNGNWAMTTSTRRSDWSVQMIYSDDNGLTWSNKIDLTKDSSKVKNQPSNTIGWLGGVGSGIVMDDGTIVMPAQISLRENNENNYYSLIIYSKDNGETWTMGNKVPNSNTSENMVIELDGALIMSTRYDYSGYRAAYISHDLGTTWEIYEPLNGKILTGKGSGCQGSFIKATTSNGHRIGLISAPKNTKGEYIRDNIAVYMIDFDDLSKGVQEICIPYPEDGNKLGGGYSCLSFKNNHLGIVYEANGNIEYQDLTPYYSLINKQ
Experiment: Inhibition of Clostridium perfringenes neuraminidase activity using 4-methylumbelliferyl-1-alpha-D-N-acetylneuramic acid sodium salt hydrate as substrate by fluorescence based assay
Conditions: read-out: pIC50 (converted)
assay-metric: IC50 (nM)
# number only, unit nM dropped from output

Examples from the recorded data:
{"entry-smiles": "COCO[C@@H]1C=C(C(=O)O)C[C@H](N)[C@H]1NC(C)=O", "test-value": 2000}
{"entry-smiles": "CCC(CC)O[C@@H]1C(F)=C(C(=O)O)C[C@H](N)[C@H]1NC(C)=O", "test-value": 3}
{"entry-smiles": "CCCCCCC[C@H](CC)O[C@@H]1C=C(C(=O)O)C[C@H](N)[C@H]1NC(C)=O", "test-value": 1}
{"entry-smiles": "CC[C@H](CCc1ccccc1)O[C@@H]1C=C(C(=O)O)C[C@H](N)[C@H]1NC(C)=O", "test-value": 12}

Note: attention shifts to another entry.
Q: Quick check: IC50 of `CC[C@@H](C)O[C@@H]1C=C(C(=O)O)C[C@H](NC(=N)N)[C@H]1NC(C)=O` ?
Result: 0.5
